The values you see were collected from patent US20120316071A1.

# systemUnderTest: T1, Recombinant Human DLL4 (delta-like protein 4) (human, UniProt Q9NR61 27-524)
# T1 construct: Bought recombinant human DLL4 (R&D Systems Cat#1506-D4/CF); also called rHuman DLL4
# procedureDetails: ECL (MSD) binding assay, immobilised DLL4, 10 nM Fab;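 note: fab binding read as electrochemiluminescence via a TAG-labelled detection antibody, 1 h incubations at 20 °C, antigen signal compared with each well's blank, ratio of at least 4 scored as binder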

binder	ECL Signal [10 nM Fab]
Fab VH5-51_IGHD5-18*01>3_IGHJ4*01 G100K/G104T & V3-4_IGLJ1*01 V91W (Fab, V domains shown, Fab; expressed with CH1 (His and Flag tags) and lambda CL from the expression plasmids; also called H:KT & V91W) VH: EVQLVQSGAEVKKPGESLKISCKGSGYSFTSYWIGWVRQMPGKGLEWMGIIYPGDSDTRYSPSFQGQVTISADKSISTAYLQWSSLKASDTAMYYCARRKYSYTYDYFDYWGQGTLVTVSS VL: QTVVTQEPSFSVSPGGTVTLTCGLSSGSVSTSYYPSWYQQTPGQAPRTLIYSTNTRSSGVPDRFSGSILGNKAALTITGAQADDESDYYCWLYMGSGISYVFGTGTKVTVL	12500
Fab VH5-51_IGHD5-18*01>3_IGHJ4*01 G100K/G104T & V3-4_IGLJ1*01 M94P (Fab, V domains shown, Fab; expressed with CH1 (His and Flag tags) and lambda CL from the expression plasmids; also called H:KT & M94P) VH: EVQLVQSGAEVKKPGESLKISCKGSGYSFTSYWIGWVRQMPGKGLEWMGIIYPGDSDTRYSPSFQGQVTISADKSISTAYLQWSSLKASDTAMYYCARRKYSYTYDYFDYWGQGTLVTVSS VL: QTVVTQEPSFSVSPGGTVTLTCGLSSGSVSTSYYPSWYQQTPGQAPRTLIYSTNTRSSGVPDRFSGSILGNKAALTITGAQADDESDYYCVLYPGSGISYVFGTGTKVTVL	39900
Fab VH5-51_IGHD5-18*01>3_IGHJ4*01 G100K/G104T & V3-4_IGLJ1*01 M94E (Fab, V domains shown, Fab; expressed with CH1 (His and Flag tags) and lambda CL from the expression plasmids; also called H:KT & M94E) VH: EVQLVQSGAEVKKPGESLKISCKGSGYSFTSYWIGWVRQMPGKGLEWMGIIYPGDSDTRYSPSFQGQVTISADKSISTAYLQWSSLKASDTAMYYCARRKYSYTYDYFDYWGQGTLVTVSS VL: QTVVTQEPSFSVSPGGTVTLTCGLSSGSVSTSYYPSWYQQTPGQAPRTLIYSTNTRSSGVPDRFSGSILGNKAALTITGAQADDESDYYCVLYEGSGISYVFGTGTKVTVL	32500
Fab VH5-51_IGHD5-18*01>3_IGHJ4*01 G100K/G104T & V3-4_IGLJ1*01 M94V (Fab, V domains shown, Fab; expressed with CH1 (His and Flag tags) and lambda CL from the expression plasmids; also called H:KT & M94V) VH: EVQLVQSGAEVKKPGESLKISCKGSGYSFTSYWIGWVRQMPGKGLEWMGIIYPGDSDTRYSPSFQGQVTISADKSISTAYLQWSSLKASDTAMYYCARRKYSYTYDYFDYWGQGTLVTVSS VL: QTVVTQEPSFSVSPGGTVTLTCGLSSGSVSTSYYPSWYQQTPGQAPRTLIYSTNTRSSGVPDRFSGSILGNKAALTITGAQADDESDYYCVLYVGSGISYVFGTGTKVTVL	47300
Fab VH5-51_IGHD5-18*01>3_IGHJ4*01 G100K/G104T & V3-4_IGLJ1*01 V91R (Fab, V domains shown, Fab; expressed with CH1 (His and Flag tags) and lambda CL from the expression plasmids; also called H:KT & V91R) VH: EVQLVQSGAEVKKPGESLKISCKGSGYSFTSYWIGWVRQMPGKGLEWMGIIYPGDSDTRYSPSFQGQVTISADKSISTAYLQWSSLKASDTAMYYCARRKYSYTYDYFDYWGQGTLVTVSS VL: QTVVTQEPSFSVSPGGTVTLTCGLSSGSVSTSYYPSWYQQTPGQAPRTLIYSTNTRSSGVPDRFSGSILGNKAALTITGAQADDESDYYCRLYMGSGISYVFGTGTKVTVL	13400
